Test: in vivo
Conditions: rat, plasma, intravenous, 20 nmol/kg
Experimental endpoint: clearance (mL/min/kg)
Give bare numbers, in mL/min/kg.

Query: Consider the compound "CCCCCC(=O)N[C@H]1CSCc2cc(CSCCNC(=O)CN3CCN(CC(=O)O)CCN(CC(=O)O)CCN(CC(=O)O)CC3)cc(c2)CSC[C@@H](C(=O)O)NC(=O)[C@H](Cc2ccccc2)NC(=O)[C@H](CCC(N)=O)NC(=O)[C@H]([C@@H](C)O)NC(=O)[C@@H]2CCCN2C(=O)[C@@H]2CCCN2C1=O" and give its measured clearance.
Result: 4.85

* * *

Target: Human recombinant FAP (Homo sapiens)
Test: FRET-based FAP protease activity assay
Format: biochemical
Set-up: purchased R&D systems 3715-SE
Details: pIC50 Category (Activity), recombinant human FAP, FRET substrate, 37° C.
Numbered stars: 1 amine (or outer) side, 2 acyl side, 3 side chain; on linkers, the order of the positions; unused ones are H or OH. Bridge positions count the residues as written; N and C are the ends. Square brackets hold non-standard residues; d marks the D form. Peptide text beside a SMILES is read from it. mXylylene = c1cc(C[*:1])cc(C[*:2])c1
Experimental endpoint: IC50

Query: Quick one: IC50 for CSCC[C@H](NC(C)=O)C(=O)N[C@H]1CSCc2cccc(c2)CSC[C@@H](C(=O)N[C@@H](CC(=O)O)C(=O)N[C@@H](Cc2c[nH]cn2)C(=O)N[C@@H](Cc2ccccc2)C(=O)N[C@@H](CCCNC(=N)N)C(=O)N[C@@H](CC(=O)O)C(N)=O)NC(=O)[C@H](Cc2ccccc2)NC(=O)[C@H](CCC(=O)O)NC(=O)[C@H]([C@@H](C)O)NC(=O)[C@H]2CCCN2C(=O)[C@@H]2CCCN2C1=O [3BP-3177] (Ac-MCP[dP]TEFCDHFRD-NH2; linker 2-8 via mXylylene) ?
Result: 10 to 79.4 nM

* * *

Target: FAP-expressing human WI-38 fibroblasts (Homo sapiens)
Construct: FAP-expressing human WI-38 fibroblasts (ECACC) were cultured in EMEM; host or cells: WI-38 human fibroblasts
Sequence (Q12884 whole entry): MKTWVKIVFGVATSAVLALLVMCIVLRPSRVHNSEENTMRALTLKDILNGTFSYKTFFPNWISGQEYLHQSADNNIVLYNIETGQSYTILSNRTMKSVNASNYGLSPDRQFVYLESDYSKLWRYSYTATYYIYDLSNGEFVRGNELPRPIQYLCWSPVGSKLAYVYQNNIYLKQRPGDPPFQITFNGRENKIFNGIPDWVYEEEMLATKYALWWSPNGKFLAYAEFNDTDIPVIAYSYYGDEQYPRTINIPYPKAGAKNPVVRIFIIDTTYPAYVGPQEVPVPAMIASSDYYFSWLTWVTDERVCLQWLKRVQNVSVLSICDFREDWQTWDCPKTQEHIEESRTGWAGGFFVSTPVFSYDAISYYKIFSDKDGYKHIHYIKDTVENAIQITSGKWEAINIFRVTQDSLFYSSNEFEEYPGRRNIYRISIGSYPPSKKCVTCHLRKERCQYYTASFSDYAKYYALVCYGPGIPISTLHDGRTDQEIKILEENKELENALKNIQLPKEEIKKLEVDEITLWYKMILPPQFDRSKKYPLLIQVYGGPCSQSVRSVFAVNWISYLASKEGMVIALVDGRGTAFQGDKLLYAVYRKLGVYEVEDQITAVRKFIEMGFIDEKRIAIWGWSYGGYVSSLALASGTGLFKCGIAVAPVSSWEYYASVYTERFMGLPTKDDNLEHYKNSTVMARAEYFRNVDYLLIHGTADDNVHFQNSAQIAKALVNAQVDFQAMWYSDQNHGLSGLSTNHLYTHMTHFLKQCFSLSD
Experiment: Competitive FACS binding assay
Details: pIC50 Category (FACS), competition with 3 nM Cy5-labeled compound, 4° C., 1 hour
Protocol: Cells were analyzed in an Attune NxT flow cytometer. […]
Numbered stars: 1 amine (or outer) side, 2 acyl side, 3 side chain; on linkers, the order of the positions; unused ones are H or OH. Bridge positions count the residues as written; N and C are the ends. Peptide text beside a SMILES is read from it. * marks the point of attachment. X12 = NCCNCC(CNCCN)C(=O)NCCCOCCOCCOCCCN*; mXylylene = c1cc(C[*:1])cc(C[*:2])c1; Suc = O=C(CCC(=O)[*:2])[*:1]
Experimental endpoint: IC50

C[C@@H](O)[C@@H]1NC(=O)[C@@H]2CCCN2C(=O)[C@@H]2CCCN2C(=O)[C@@H](NC(=O)[C@H](CCC(=O)O)NC(=O)CCC(=O)NCCCOCCOCCOCCCNC(=O)C(CNCCN)CNCCN)CSCc2cccc(c2)CSC[C@@H](C(=O)O)NC(=O)[C@H](Cc2ccccc2)NC(=O)[C@H](CCC(=O)O)NC1=O [3BP-4233] ({X12-Suc}-ECPPTEFC-OH; linker 2-8 via mXylylene)
100 to 794 nM
CCCCCS(=O)(=O)N[C@H]1CSCc2cc(CSCCNC(=O)CN3CCN(CC(=O)O)CCN(CC(=O)O)CCN(CC(=O)O)CC3)cc(c2)CSC[C@@H](C(=O)O)NC(=O)[C@H](Cc2ccccc2)NC(=O)[C@H](CCC(N)=O)NC(=O)[C@H]([C@@H](C)O)NC(=O)[C@@H]2CCCN2C(=O)[C@@H]2CCCN2C1=O [3BP-3690]
< 10 nM

Query: Fill blank: measured IC50 of the molecule CCCCCC(=O)N[C@H]1CSCc2cc(CSCCNC(=O)CCC(=O)NCCCOCCOCCOCCCNC(=O)CCC(=O)NCCCOCCOCCOCCCNC(=O)CCC(=O)NCCCOCCOCCOCCCNC(=O)CCCNCCCOCCOCCOCCCNC(=O)CCCC[C@H]3SC[C@H]4NC(=O)N[C@H]43)cc(c2)CSC[C@@H](C(=O)O)NC(=O)[C@H](Cc2ccccc2)NC(=O)[C@H](CCC(N)=O)NC(=O)[C@H]([C@@H](C)O)NC(=O)[C@@H]2CCCN2C(=O)[C@@H]2CCCN2C1=O [3BP-4170] is ____.
Result: 10 to 79.4 nM
